Cited source: patent US9926332B2

# System: α2 subunit of the human GABAA receptor in association with the beta2 (short) and gamma2 (long) subunits (Homo sapiens, UniProt P18507+P47869+P47870)
# Construct: expressed in transfected cells; host or cells: HEK-293
# Sequence (P47869 29-451): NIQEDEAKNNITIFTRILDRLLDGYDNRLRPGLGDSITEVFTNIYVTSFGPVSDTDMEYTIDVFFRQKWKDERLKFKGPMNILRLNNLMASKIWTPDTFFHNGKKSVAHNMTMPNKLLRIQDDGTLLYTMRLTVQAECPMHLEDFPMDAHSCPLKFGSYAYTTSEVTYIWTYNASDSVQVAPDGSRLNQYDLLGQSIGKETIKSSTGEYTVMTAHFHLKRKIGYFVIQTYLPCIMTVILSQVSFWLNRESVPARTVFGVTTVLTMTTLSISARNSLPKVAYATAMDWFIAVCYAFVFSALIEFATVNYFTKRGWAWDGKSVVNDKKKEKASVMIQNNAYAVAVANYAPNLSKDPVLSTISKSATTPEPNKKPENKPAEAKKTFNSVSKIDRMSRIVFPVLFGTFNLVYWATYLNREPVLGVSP
# Sequence (P47870 26-474 isoform P47870-1 partner limits assumed): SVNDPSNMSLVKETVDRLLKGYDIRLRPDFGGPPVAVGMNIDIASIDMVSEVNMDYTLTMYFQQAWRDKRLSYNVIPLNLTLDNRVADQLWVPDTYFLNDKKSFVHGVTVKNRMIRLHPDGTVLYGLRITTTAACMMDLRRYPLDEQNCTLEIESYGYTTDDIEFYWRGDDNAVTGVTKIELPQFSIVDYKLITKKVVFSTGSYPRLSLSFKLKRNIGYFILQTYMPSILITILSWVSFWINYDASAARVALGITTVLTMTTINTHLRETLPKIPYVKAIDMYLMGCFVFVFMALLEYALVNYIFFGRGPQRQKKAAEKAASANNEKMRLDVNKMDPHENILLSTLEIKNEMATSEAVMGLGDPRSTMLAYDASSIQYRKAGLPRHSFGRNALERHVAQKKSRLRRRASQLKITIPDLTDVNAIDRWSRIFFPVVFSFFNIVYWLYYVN
# Sequence (P18507 40-475 partner): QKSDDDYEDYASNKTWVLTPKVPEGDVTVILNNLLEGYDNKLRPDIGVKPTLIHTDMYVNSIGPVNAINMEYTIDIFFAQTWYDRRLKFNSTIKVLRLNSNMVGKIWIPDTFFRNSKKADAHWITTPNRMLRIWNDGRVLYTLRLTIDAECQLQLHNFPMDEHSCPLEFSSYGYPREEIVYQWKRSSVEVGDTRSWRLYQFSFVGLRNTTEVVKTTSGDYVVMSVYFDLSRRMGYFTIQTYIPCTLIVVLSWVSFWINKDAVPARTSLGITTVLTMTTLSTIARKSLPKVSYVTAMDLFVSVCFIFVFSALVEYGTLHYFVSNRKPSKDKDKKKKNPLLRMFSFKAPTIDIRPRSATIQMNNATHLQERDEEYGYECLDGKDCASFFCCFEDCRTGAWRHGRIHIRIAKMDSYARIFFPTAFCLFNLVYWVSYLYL
# Assay name: GABA-induced membrane potential response (FMP dye, FlexStation3) in HEK-293 cells expressing GABAA α2
# Format: cell-based
pEC50: −log10 of the molar value.

>  <Molecule>
CCc1c(C2=NN=C(C)Cc3cc4c(cc32)OC(C)C(=O)N4)sc2ccc(Cl)cc12 (racemic)

>  <pEC50>
6.00

$$$$
>  <Molecule>
CC1=NN=C(c2oc3ccc(Cl)cc3c2C)c2cc3c(cc2C1)NC(=O)C(C)O3 (stereo not shown)

>  <pEC50>
6.00

$$$$
>  <Molecule>
COc1ccc2oc(C3=NN=C(C)Cc4cc5c(cc43)OC(C)C(=O)N5)c(C)c2c1 (racemic)

>  <pEC50>
6.10

$$$$
>  <Molecule>
CC1=NN=C(c2sc3cccc(F)c3c2C)c2cc3c(cc2C1)NC(=O)C(C)O3 (stereo not shown)

>  <pEC50>
5.46

$$$$
